From: the RNAGym collection of RNA variant scans (doi:10.1073/pnas.2313332121)

B1: TPR 5TU (parent)
chain: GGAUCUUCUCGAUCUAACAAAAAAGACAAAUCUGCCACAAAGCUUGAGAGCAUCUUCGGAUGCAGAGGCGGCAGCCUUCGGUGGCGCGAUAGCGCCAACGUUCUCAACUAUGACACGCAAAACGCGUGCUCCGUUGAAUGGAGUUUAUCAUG

Variants of: B1
run description: polymerase ribozyme fitness, log enrichment relative to wild type (log ratio); higher = more active; in vitro selection for triplet polymerase activity
Variants at the floor of the assay were thinned out.
polymerase ribozyme fitness (log ratio) values, listed per item
Kindly provide the number alone.

Here is how some variants turned out for polymerase ribozyme fitness (log ratio).
> print(dat)
    mutation.name                                 property  observed
1  A37C A52U C96A  polymerase ribozyme fitness (log ratio)     -2.87
2  A39C C54A G81A  polymerase ribozyme fitness (log ratio)     -3.05
3      G92A C105A  polymerase ribozyme fitness (log ratio)     -3.36
4      A52G C125U  polymerase ribozyme fitness (log ratio)    -0.198
5   U6G U13G C57G  polymerase ribozyme fitness (log ratio)     -2.26

Query (variant): C75U G94C A142C ; field requested: polymerase ribozyme fitness (log ratio)
-2.58

Query (variant): U102C U134A ; field requested: polymerase ribozyme fitness (log ratio)
-3.46

Query (variant): A22U A120G U144A ; field requested: polymerase ribozyme fitness (log ratio)
0.42

Query (variant): G84A G133C G141C ; field requested: polymerase ribozyme fitness (log ratio)
-2.83

Query (variant): A41C C79U G94U G100A C125A ; field requested: polymerase ribozyme fitness (log ratio)
-2.23

Query (variant): A39G G42A ; field requested: polymerase ribozyme fitness (log ratio)
-3.64

Query (variant): G48U G59C G81A A97U ; field requested: polymerase ribozyme fitness (log ratio)
-1.88

Query (variant): A26C U144G ; field requested: polymerase ribozyme fitness (log ratio)
-0.859
